Each recorded value in this set is attributed to patent US20240317721A1.

# system under test: KRasG12C (M1-K169, biotinylated on the N-terminus) (Homo sapiens (Human), UniProt P01116, G12C)
# measurement protocol: Covalent competition assay: scintillation proximity assay (SPA) quantifying covalent modification of KRASG12C
# condition notes: competition with radiolabeled covalent probe (Compound B/Compound A), 2 hours incubation, 10 nM KRasG12C
measurement kind: pIC50
Scale note: pIC50 = -log10(concentration in M).

// worked examples, pIC50 included
>  <compound>
C=CC(=O)N1CC2(CC(n3nc(N4CC[C@@H](CN5CCOCC5)CC4(C)C)c(-c4c(Cl)c(Cl)cc5[nH]nc(N)c45)c3C)C2)C1 (single isomer, unassigned) [Example 241a]

>  <pIC50>
8.10

$$$$
>  <compound>
C=CC(=O)N1CC2(CC(n3nc(N4CCS(=O)(=O)CC4(C)C)c(-c4c(Cl)c(C)cc5[nH]ncc45)c3C)C2)C1 (single isomer, unassigned) [Example 82b]

>  <pIC50>
6.08

$$$$

Now, please, on to the next compound.
Lookup: Give its pIC50 value. Item: C=CC(=O)N1CC2(CC(n3nc(N4CC[C@@H](CN5CCN(C(=O)CO)CC5)CC4(C)C)c(-c4c(Cl)c(Cl)cc5[nH]ncc45)c3C)C2)C1 (single isomer, unassigned) [Example 310a]
Found: 5.54
